Target: wt PPARG (Homo sapiens)
Sequence (P37231 1-505): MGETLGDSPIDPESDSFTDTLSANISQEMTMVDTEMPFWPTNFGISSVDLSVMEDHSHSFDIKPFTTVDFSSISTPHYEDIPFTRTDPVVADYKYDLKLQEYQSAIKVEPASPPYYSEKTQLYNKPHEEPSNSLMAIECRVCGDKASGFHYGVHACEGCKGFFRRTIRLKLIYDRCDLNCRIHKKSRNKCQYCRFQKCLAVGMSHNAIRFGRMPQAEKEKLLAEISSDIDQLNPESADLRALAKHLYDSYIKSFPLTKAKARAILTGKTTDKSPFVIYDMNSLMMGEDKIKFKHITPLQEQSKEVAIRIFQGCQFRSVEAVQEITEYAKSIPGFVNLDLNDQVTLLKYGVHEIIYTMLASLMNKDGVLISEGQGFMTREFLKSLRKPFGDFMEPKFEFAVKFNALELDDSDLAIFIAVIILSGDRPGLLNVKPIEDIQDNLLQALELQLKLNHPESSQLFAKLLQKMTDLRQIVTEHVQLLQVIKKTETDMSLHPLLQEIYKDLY
Assay: Gel-based competitive IC50 determination in 293T lysates: WT PPARγ
Conditions: wt PPARG expressed in 293T cells, lysate, 1 h, then 10 μM 24c-Cy3
Readout: pIC50
By convention, pIC50 is the negative base-10 log of a molar concentration.

Param readout= pIC50; system= wt PPARG (Homo sapiens); entry= C=C(C)C(=O)O[C@H]1CC2=C[C@H](C/C=C\[C@H]3OC(=O)C(=C)[C@H]13)OC2=O [19a] ; returns value.
4.72
